- tgt: T1, human C3b (human, UniProt P01024 749-1663)
- T1 construct: Complement C3 beta chain, human; cut product of the C3 precursor; C3b alpha chain (C3 alpha chain after release of C3a), human; Two-chain fragment of C3; amine-coupled to the chip in SPR, free in the cryo-EM sample; also called hC3b; plasma-purified C3b; source: bought: Complement Technology (plasma-purified)
- measurement_notes: SPR; Biacore T200; human C3b amine-coupled; multicycle kinetics, serial 2-fold dilutions of peptide, 120 s injection, 180 s dissociation, regeneration 1 M NaCl; 25 °C, HBST pH 7.4; Langmuir 1:1 fit, KD = kd/ka; mean of 3 experiments
- test_conditions: both partners purified
Bridges are numbered along the chain shown (N, C = ends). Where no end group is shown, it is not given here. [ ]: non-standard residue; d: D form. Asu = N[C@@H](CCCCCC(=O)O)C(=O)O
readout_name: Kd (µM)

Given the entry Ac-ICVWQ[Asu]WGAHRCT (disulfide 2-12 (inferred)) [Cp01 Asp6Asu analog] , report its measured Kd. 2.08

[P] ICXWQDWGAHRCT (not fully specified; norvaline (Nva) at position 3; acetyl at position 0; cyclic (cyclized by H2O2)) [Cp01 Val3Nva analog]
[Q] ICXWQDWGAHRCT (α-tert-butyl-glycine (Tbg) at position 3; acetyl at position 0; cyclic (cyclized by H2O2)) [Cp01 Val3Tbg analog]
For the pair P and Q , which member has the lower Kd number? Choose, then provide that item's label. Q
